system: HOP-62 NSCLC; assay: NCI tumour cell line growth inhibition, 48 h
Below, each entry is listed alongside its reported TGI.

molecule | system tested | TGI
Cc1ccc(/C=C/C(=O)c2ccc(Cl)c(Cl)c2)cc1 | HOP-62 NSCLC | > 100 µM
Cc1ncn(-c2ccccc2O)c1C | HOP-62 NSCLC | > 100 µM
CCOP(=O)(CC(=O)C1CC1)OCC | HOP-62 NSCLC | > 100 µM
COc1cc2nc(Nc3cccc(Cl)c3)nc(N)c2cc1OC | HOP-62 NSCLC | 18.3 µM
NC(=O)c1cc(N2CC2)c([N+](=O)[O-])cc1[N+](=O)[O-] | HOP-62 NSCLC | > 200 µM

## Input Sample Cc1ccc(OCC2CO2)c(Br)c1 (configuration not stated) — what was its TGI?
## Output > 100 µM

## Input Query Cc1ccc2c(c1)nc1n2C(c2c(F)cccc2F)SC1 (configuration not stated) next
## Output > 100 µM

## Input Try this molecule too: O=C1C(Cl)=C(Cl)C(=O)C(CCNc2nccs2)=C1Cl
## Output > 100 µM

## Input Also CC(C)(C)c1ccc2c(c1)OP1(Oc3c(Cl)cc(Cl)c4cccnc34)(O2)Oc2ccc(C(C)(C)C)cc2O1 ?
## Output 20 µM

## Input Now the molecule S=P1(Sc2ccccc2)Oc2ccc3ccccc3c2-c2c(ccc3ccccc23)O1
## Output > 100 µM
